# System: UO-31 renal
# ASSAY_EXPLANATION: NCI tumour cell line growth inhibition, 48 h; in the data active means GI50 below about 0.43 µM; inactive means the rest
Outcome codes: True = active, False = inactive

COMPOUND	ANSWER_LABEL
CC1OC(OC2C(O)CC(OC3C(O)CC(OC4CCC5(C)C(CCC6C5CC(O)C5(C)C(C7=CC(=O)OC7)CCC65O)C4)OC3C)OC2C)CC(O)C1O (centres undefined)	True
COC(=O)CCCCC(=O)c1c(C)[nH]c(/C=C2\N=C(c3ccc[nH]3)C=C2OC)c1C	True
Oc1c(I)cc(I)c2cccnc12	False
COc1cc2c(cc1OCCCCN1CCN(C(=S)SCCC(C#N)(c3ccccc3)c3ccccc3)CC1)N=C[C@@H]1CCCN1C2=O	False
